test system: TK-10; assay: NCI tumour cell line growth inhibition, 48 h
Active and inactive are the calls of the source. Cut-off read from the data, not from the text of the source: active = GI50 up to about 1.1 µM and inactive = higher.
Please state which outcome applies, choosing from active, inactive

CCN(C(=O)N[C@@H](Cc1ccccc1)C(=O)N[C@@H](CC(C)C)C(=O)OC)c1ccccc1 : inactive

Task item: # outcome recorded in this test, key = "COc1cc2c(cc1OC)-c1c3cc(O)ccc3nn[n+]1CC2"
Reply: inactive

Task item: # outcome recorded in this test, key = CN(C)CC(O)c1ccc(Cl)c2ccccc12 (stereo not given)
Reply: inactive

Task item: # outcome recorded in this test, key = "COCCN(CCNC(=O)c1cccc2c(N)c3cccc(C)c3nc12)CCOC"
Reply: inactive

Task item: # outcome recorded in this test, key = "Cc1cc(-c2nc3cc(F)ccc3s2)ccc1N"
Reply: active

Task item: # outcome recorded in this test, key = "C[C@]12CC[C@H](O)CC1=CC[C@@H]1[C@@H]2CC[C@]2(C)C(=N/N)/C(=N\O)C[C@@H]12"
Reply: inactive

Task item: # outcome recorded in this test, key = "CC(=O)Oc1ccc(/C=C/C(=O)O[C@@H](C)[C@H](C)OC(=O)/C=C/c2ccc(OC(C)=O)c(OC(C)=O)c2)cc1OC(C)=O"
Reply: inactive

Task item: # outcome recorded in this test, key = CCC1(C)NC(c2cnccn2)=NN1c1ccc(Cl)cc1 (stereo not given)
Reply: inactive

Task item: # outcome recorded in this test, key = "CCOC(=O)c1nc2ccc(C(F)(F)F)cc2nc1Oc1cc(OC)c(OC)c(OC)c1"
Reply: inactive

Task item: # outcome recorded in this test, key = "CCCCCc1cc(CCCC)sc1-c1ccco1"
Reply: inactive

====

GI50 listing for selected compounds.
tested on: MDA-N; assay: NCI tumour cell line growth inhibition, 48 h
The source made the active and inactive calls. No stated cut-off is given here; in the data, active = GI50 up to about 1.1 µM and inactive = higher.

Cc1cn(CCCCCCOC(=O)NC(CCCNC(N)=O)C(=O)O)c(=O)[nH]c1=O (stereo unspecified) : > 100 µM (inactive)

Task item: Record lookup: for MDA-N, what GI50 belongs to "CCOC(=O)c1c2c(n3ccccc13)C(=O)c1ccccc1C2=O" ?
Reply: > 100 µM (inactive)

Task item: Record lookup: for MDA-N, what GI50 belongs to "Oc1cc(N2CCCC2)ccc1/C=N/N1C(=S)N(c2ccccc2)C(=N\c2ccccc2)/C1=N/c1ccccc1" ?
Reply: > 100 µM (inactive)

Task item: Record lookup: for MDA-N, what GI50 belongs to "CCn1c2ccccc2c2nnc(NCCCO)nc21" ?
Reply: > 100 µM (inactive)

Task item: Record lookup: for MDA-N, what GI50 belongs to "COc1cc(N(CCC#N)CCC#N)ccc1/C=N\NC(=O)c1ccc(C)cc1" ?
Reply: > 100 µM (inactive)

Task item: Record lookup: for MDA-N, what GI50 belongs to "COC(=O)/C=C1/OC(c2ccc(OC)cc2)=C(Cl)C1=O" ?
Reply: 16.7 µM (inactive)

Task item: Record lookup: for MDA-N, what GI50 belongs to CC[C@]1(Cc2ccc(OC)c(OC)c2)C2CC(C(=O)OC)ON2O[C@H](OCc2ccccc2)[C@@H]1OC(C)=O (stereo partly specified) ?
Reply: > 100 µM (inactive)

Task item: Record lookup: for MDA-N, what GI50 belongs to "CO[C@](C(=O)OC[C@H]1[C@@H](COC(C)=O)[C@@H]2O[C@H]1c1cc3c(cc12)OCO3)(c1ccccc1)C(F)(F)F" ?
Reply: 38.3 µM (inactive)

Task item: Record lookup: for MDA-N, what GI50 belongs to "O=c1c2ccccc2n2nnc3ccc(NCCNCCO)c1c32" ?
Reply: 1.69 µM (inactive)

Task item: Record lookup: for MDA-N, what GI50 belongs to "COc1c(N2CCCCC2)c2c(=O)c3ccccc3oc2c2cc(C)oc12" ?
Reply: 23.7 µM (inactive)

Task item: Record lookup: for MDA-N, what GI50 belongs to Cc1cc2c(s1)C(N)CC2=O (stereo unspecified) ?
Reply: > 100 µM (inactive)

====

GI50 listing for selected compounds.
tested on: UO-31; experiment: NCI tumour cell line growth inhibition, 48 h
Active and inactive are the calls of the source. Cut-off read from the data, not from the text of the source: active = GI50 up to about 1.1 µM and inactive = higher.

// worked examples, GI50 included
COc1cc(CNc2ccc(SC)cc2)cc(OC)c1OC : 20 µM (inactive)
CC(C)CC/N=c1/cc2n(-c3ccc(Cl)cc3)c3ccccc3nc-2cc1Nc1ccc(Cl)cc1 : 5.56 µM (inactive)
COc1ccccc1NC(=O)C1=C(C)NC(C)=C(C(=O)Nc2ccccc2OC)C1c1ccc(C2C(C(=O)Nc3ccccc3OC)=C(C)NC(C)=C2C(=O)Nc2ccccc2OC)cc1 : 4.14 µM (inactive)
O=C1SC(c2ccccc2)(c2ccccc2)c2ccccc21 : 56.2 µM (inactive)
Cc1ccc(S(=O)(=O)n2cc(/C=C/C#N)c(/C=C/C#N)c2)cc1 : 23.4 µM (inactive)
COc1cc(S(=O)(=O)Nc2ccc(-c3csc(N4C(=O)C(Cl)C4c4ccccc4)n3)cc2)ccc1Cl (centres undefined) : 25 µM (inactive)

Task item: Which GI50 is listed for "CCN(CC)CCCNC(=O)c1ccccc1Nc1c(Cl)cccc1Cl" ?
Reply: 6.79 µM (inactive)

Task item: Which GI50 is listed for "COc1cc(CN(C)N2C(=O)c3cccc4cc([N+](=O)[O-])cc(c34)C2=O)cc(OC)c1OC" ?
Reply: > 100 µM (inactive)

Task item: Which GI50 is listed for "Nc1ccc(/N=N/c2c(S(=O)(=O)O)cc3ccccc3c2S(=O)(=O)O)cc1" ?
Reply: > 100 µM (inactive)

Task item: Which GI50 is listed for "O=C1C(Sc2ccc3ccccc3c2)=C(Sc2ccc3ccccc3c2)C(=O)c2ccccc21" ?
Reply: 3.95 µM (inactive)

Task item: Which GI50 is listed for CC(C)=CCN1c2ccccc2NC(=O)CC1C (centres undefined) ?
Reply: 83.4 µM (inactive)

Task item: Which GI50 is listed for "C[C@]12CC[C@H](O)CC1=CC[C@@H]1[C@@H]2CC[C@]2(C)C(=N/N)/C(=N\O)C[C@@H]12" ?
Reply: > 100 µM (inactive)

Task item: Which GI50 is listed for Clc1cccc(Cl)c1C1SCc2nc3ncccc3n21 (centres undefined) ?
Reply: > 100 µM (inactive)

Task item: Which GI50 is listed for "C=CCN1C(=O)C[C@H](Cc2ccccc2)NC(=O)C[C@H](Cc2ccccc2)N(CC=C)C(=O)C[C@H](Cc2ccccc2)NC(=O)C[C@@H]1Cc1ccccc1" ?
Reply: 7.03 µM (inactive)

====

system: DMS-273; test: NCI tumour cell line growth inhibition, 48 h
Active and inactive are the calls of the source. Rule as the data show it: active = GI50 up to about 1.1 µM and inactive = higher.
GI50 listing for selected compounds.

Task item: Record lookup: for DMS-273, what GI50 belongs to "COc1cc(-c2cc(O)c3ccccc3n2)cc(OC)c1OC" ?
Reply: > 75 µM (inactive)

Task item: Record lookup: for DMS-273, what GI50 belongs to "CN(C)CCN(C)C(=O)c1cccc2cccc(C(=O)O)c12" ?
Reply: > 100 µM (inactive)

Task item: Record lookup: for DMS-273, what GI50 belongs to CC(C)(C)OC(=O)N1N=NC2C1C1CC(OCc3ccccc3)(OCc3ccccc3)C2O1 (stereo unspecified) ?
Reply: 52.2 µM (inactive)

Task item: Record lookup: for DMS-273, what GI50 belongs to "O=C(O)CCCCCCC[C@@H]1S[C@H]1CCCCCCO" ?
Reply: > 100 µM (inactive)

Task item: Record lookup: for DMS-273, what GI50 belongs to CCOC(=O)CNc1nnnn1C1OC(CO)C(O)C1O (stereo unspecified) ?
Reply: > 100 µM (inactive)

Task item: Record lookup: for DMS-273, what GI50 belongs to "C=CC[P@]1(=O)O[C@H](c2ccccc2)[C@H](C)N1C" ?
Reply: > 100 µM (inactive)

====

tested on: HCT-116; test: NCI tumour cell line growth inhibition, 48 h
The source made the active and inactive calls. Rule as the data show it: active = GI50 up to about 1.1 µM and inactive = higher.
Please state which outcome applies, choosing from Yes for active, No for inactive

Here's what some known entries look like.
COc1c2cc(C(C)(C)C)cc1Cc1cccc(c1O)Cc1cc(C(C)(C)C)cc(c1OC)Cc1cccc(c1O)Cc1cc(C(C)(C)C)cc(c1OC)Cc1cccc(c1O)C2 : No
COC(=O)[C@]1(CCC(C)=O)C(=O)C=CN([C@H](C)c2ccccc2)[C@@H]1Cc1ccc(OC)c(OCc2ccccc2)c1I : No
CC(C)OC(=O)[C@@H](O)[C@H](CO)C1=CC([Si](C)(C)c2ccccc2)=CON1 : No

Task item: # outcome recorded in this test, key = "COc1cccc2c3ccccc3c3nc[nH]c3c12"
Reply: No

Task item: # outcome recorded in this test, key = "COc1ccccc1NC(=O)C1=C(C)NC(C)=C(C(=O)Nc2ccccc2OC)C1c1ccc(C2C(C(=O)Nc3ccccc3OC)=C(C)NC(C)=C2C(=O)Nc2ccccc2OC)cc1"
Reply: No

Task item: # outcome recorded in this test, key = "CC(=O)N(C)OC(=O)CC(=O)c1ccccc1"
Reply: No

Task item: # outcome recorded in this test, key = "Cc1nn2c(N)cc(=O)nc2nc1/C=C/c1ccc(N(C)C)cc1"
Reply: No

Task item: # outcome recorded in this test, key = "OCCO[P+]1(OCCO)n2c3ccc2C(c2ccccc2)=C2C=CC(=N2)C(c2ccccc2)=c2ccc(n21)=C(c1ccccc1)C1=NC(=C3c2ccccc2)C=C1"
Reply: Yes
